assay: in vitro; conditions: human, Caco-2, Caco-2 (cm/sec)
*1 amine or outer side, *2 acyl side, *3 side chain or, on linkers, in order; H or OH if unused. Where a SMILES comes first, the peptide text is derived from it. Bridges are numbered along the chain shown (N, C = ends). [ ]: non-standard residue; d: D form. The star is where a group is joined. ξ: configuration not given here. NMeHph(3-OMe-4-CONHMe) = CNC(=O)c1ccc(CC[C@H](NC)C(=O)O)cc1OC; NMePhe(3-Cl) = CN[C@@H](Cc1cccc(Cl)c1)C(=O)O; NMehPhe = CN[C@@H](CCc1ccccc1)C(=O)O; NMeF = CN[C@@H](Cc1ccccc1)C(=O)O; NMeGABA = CN(CCCC(=O)[*:2])[*:1]; Butyl(3-Me,3-OH) = CC(C)(O)CC*; CH2CONHtBu = CC(C)(C)NC(=O)C*; NMeL = CN[C@@H](CC(C)C)C(=O)O; Thr(3ξ) = CC(O)[C@H](N)C(=O)O; Propyl(2R-OH) = C[C@@H](O)C*; NMeV = CN[C@H](C(=O)O)C(C)C; NMeA = CN[C@@H](C)C(=O)O; Piperidide = C1CCN(*)CC1; Abu = CC[C@H](N)C(=O)O; CH2CMe2OH = CC(C)(O)C*; NBuGly = CCCCNCC(=O)O; Isopentyl = CC(C)CC*; NPrGly = CCCNCC(=O)O; Sar = CNCC(=O)O
Metric Name: Papp

# Compound, Value Observed
records = [
    ("CC[C@H](C)[C@@H]1NC(=O)[C@H](CC(C)C)N(C)C(=O)CCCN(C)C(=O)C[C@@H](C(=O)N2CCCCC2)NC(=O)[C@H](CC(C)C)N(C)C(=O)[C@H](CC(C)C)N(C)C(=O)[C@H]([C@@H](C)O)NC(=O)[C@H](CC(C)C)N(C)C(=O)[C@H](COC[C@@H](C)O)NC(=O)[C@H](Cc2cccc(Cl)c2)N(C)C(=O)[C@H](Cc2ccccc2)N(C)C1=O [AP74] ([NMeGABA][NMeL]I[NMeF][NMePhe(3-Cl)]S(Propyl(2R-OH))[NMeL]T[NMeL][NMeL]D-Piperidide; lactam N-11)", "0.31 ×10⁻⁶ cm/s"),
    ("CC[C@H](C)[C@@H]1NC(=O)[C@H](C(C)C)N(C)C(=O)CCCN(C)C(=O)C[C@@H](C(=O)N2CCCCC2)NC(=O)[C@H](CC(C)C)N(C)C(=O)[C@H](CC(C)C)N(C)C(=O)[C@H]([C@@H](C)O)NC(=O)[C@H](CC(C)C)N(C)C(=O)[C@H](COCCC(C)(C)O)NC(=O)[C@H](Cc2cccc(Cl)c2)N(C)C(=O)[C@H](Cc2ccccc2)N(C)C1=O [AP54] ([NMeGABA][NMeV]I[NMeF][NMePhe(3-Cl)]S(Butyl(3-Me,3-OH))[NMeL]T[NMeL][NMeL]D-Piperidide; lactam N-11)", "1.4 ×10⁻⁶ cm/s"),
    ("CCCCN1CC(=O)N(C)[C@@H](CC(C)C)C(=O)N[C@@H](COCC(=O)NC(C)(C)C)C(=O)N(C)[C@@H](CCc2ccccc2)C(=O)N(C)[C@@H](C)C(=O)N[C@H](C(=O)N2CCCCC2)CC(=O)N[C@H](CC(C)C)C(=O)N(C)[C@@H](CC(C)C)C(=O)N[C@@H](Cc2ccccc2)C(=O)N(C)[C@@H](CC(C)C)C(=O)N[C@@H](C(C)O)C1=O (stereo partly drawn) [AP12] ([dL][NMeL]F[NMeL][Thr(3ξ)][NBuGly][NMeL]S(CH2CONHtBu)[NMehPhe][NMeA]D-Piperidide; lactam N-11)", "0.17 ×10⁻⁶ cm/s"),
    ("CCCN1CC(=O)N(C)[C@@H](CC(C)C)C(=O)N[C@@H](COCCC(C)C)C(=O)N(C)[C@@H](Cc2ccccc2)C(=O)N(C)[C@@H](C(C)C)C(=O)N[C@H](C(=O)N2CCCCC2)CC(=O)N[C@H](C(C)C)C(=O)N(C)[C@@H](Cc2ccccc2)C(=O)N[C@@H](COCC(C)(C)O)C(=O)N(C)[C@@H](CC(C)C)C(=O)N[C@@H]([C@@H](C)O)C1=O [AP01] ([dV][NMeF]S(CH2CMe2OH)[NMeL]T[NPrGly][NMeL]S(Isopentyl)[NMeF][NMeV]D-Piperidide; lactam N-11)", "1.4 ×10⁻⁶ cm/s"),
    ("CC[C@@H]1NC(=O)[C@H](CCc2ccc(C(=O)NC)c(OC)c2)N(C)C(=O)[C@H](CC(C)C)N(C)C(=O)[C@H](CC(C)C)NC(=O)[C@H](C)N(C)C(=O)C[C@@H](C(=O)N2CCCCC2)NC(=O)[C@H](CC(C)C)N(C)C(=O)CN(C)C(=O)[C@H]([C@@H](C)O)NC(=O)[C@H](CC(C)C)N(C)C(=O)[C@H](Cc2ccccc2)N(C)C1=O [AP229] ([NMeA]L[NMeL][NMeHph(3-OMe-4-CONHMe)][Abu][NMeF][NMeL]T[Sar][NMeL]D-Piperidide; lactam N-11)", "0.43 ×10⁻⁶ cm/s"),
]

Recorded values, source patent US20230096766A1.
